# System: MRSA (ATCC 33593)
# Procedure summary: microbe, parasite or virus in culture
# Format: cell-based, Staphylococcus aureus
# Experimental setup: MRSA; antioxidant alone
Overview of recorded MIC for various compounds
Measurement type: MIC

Compound	Measurement type	Measured value
CCCCCCCCCCCCOC(=O)c1cc(O)c(O)c(O)c1 [Lauryl gallate, lauryl gallate]	MIC	128 µg/mL
COc1ccc([C@@H]2CC(=O)c3c(O)cc(O[C@@H]4O[C@H](CO[C@@H]5O[C@@H](C)[C@H](O)[C@@H](O)[C@H]5O)[C@@H](O)[C@H](O)[C@H]4O)cc3O2)cc1O [Hesperedin, hesperidin]	MIC	>1024 µg/mL
CCCOC(=O)c1cc(O)c(O)c(O)c1 [Propyl gallate, propyl gallate]	MIC	512 µg/mL
Oc1cc(O)c2c(c1)OC(c1ccc(O)c(O)c1)C(O)C2 (stereo not drawn) [Catechin(+), catechin]	MIC	>1024 µg/mL

====

# Tested on: MSSA (ATCC 29213)
# Procedure summary: MIC (broth dilution) and MBC (spotting) of phenolic antioxidants and bacitracin
# Format: cell-based, Staphylococcus aureus
# Experimental setup: antioxidant alone

Compound	MIC
Cc1cc(C(C)(C)C)c(O)c(C(C)(C)C)c1 [Butylated hydroxytoluene, butylated hydroxytoluene]	>1024 mg/L
COc1ccc([C@@H]2CC(=O)c3c(O)cc(O[C@@H]4O[C@H](CO[C@@H]5O[C@@H](C)[C@H](O)[C@@H](O)[C@H]5O)[C@@H](O)[C@H](O)[C@H]4O)cc3O2)cc1O	>1024 mg/L
Oc1cc(O)c2c(c1)OC(c1ccc(O)c(O)c1)C(O)C2 (stereo not drawn) [Catechin(+), catechin]	>1024 mg/L

====

MIC by entry:
# System: MRSA 3823
# Procedure summary: microbe, parasite or virus in culture
# Type: cell-based, Staphylococcus aureus
# Experimental setup: Staphylococcus aureus; MRSA 3823 (human/nose); read-out: MIC
Measurement type: MIC

Compound	Measured value
O=C(N[C@H](CO)[C@H](O)c1ccc([N+](=O)[O-])cc1)C(Cl)Cl	≥ 128 µg/mL
COC(=O)c1cc(O)c(O)c(O)c1 [Methyl gallate (MG), methyl gallate]	> 1020 µg/mL
CCCCCCCCCCCCCCCCCCOC(=O)c1cc(O)c(O)c(O)c1 [Stearyl gallate (SG), stearyl gallate]	> 1020 µg/mL
CC[C@H]1OC(=O)[C@H](C)[C@@H](O[C@H]2C[C@@](C)(OC)[C@@H](O)[C@H](C)O2)[C@H](C)[C@@H](O[C@@H]2O[C@H](C)C[C@H](N(C)C)[C@H]2O)[C@](C)(O)C[C@@H](C)C(=O)[C@H](C)[C@@H](O)[C@]1(C)O	≥ 128 µg/mL
CCOC(=O)c1cc(O)c(O)c(O)c1 [Ethyl gallate (EG), ethyl gallate]	> 1020 µg/mL
